Tested on: NCI/ADR-RES
Assay: NCI tumour cell line growth inhibition, 48 h
Calls of active or inactive are those of the source. Cut-off read from the data, not from the text of the source: active = GI50 up to about 1.1 µM and inactive = higher. Bridge positions count the residues as written; N and C are the ends. Square brackets hold non-standard residues; d marks the D form. Peptide text beside a SMILES is read from it. I, II: the chains in the order shown. * marks the point of attachment. Quinoxaline2carbonyl = O=C(c1cnc2ccccc2n1)*; NMeV = CN[CH](C(=O)O)C(C)C; NMeC = CN[CH](CS)C(=O)O
Lab note: assign the record to one of active, inactive

Consider the worked cases shown below.
{"COMPOUND": "CC1NC(=O)C(NC(=O)c2cnc3ccccc3n2)COC(=O)C(C(C)C)N(C)C(=O)C2CSSCC(C(=O)N(C)C(C(C)C)C(=O)OCC(NC(=O)c3cnc4ccccc4n3)C(=O)NC(C)C(=O)N2C)N(C)C1=O (stereo not given) (I: Quinoxaline2carbonyl-SA[NMeC][NMeV] / II: Quinoxaline2carbonyl-SA[NMeC][NMeV]; ester I:1-II:C, I:C-II:1; disulfide I:3-II:3; configuration not given here)", "ASSAYED_SYSTEM": "NCI/ADR-RES", "ASSIGNED_CATEGORY": "active"}
{"COMPOUND": "COc1ccccc1/C=C1/Sc2scc(CC(=O)Nc3ccccc3)[n+]2C1=O", "ASSAYED_SYSTEM": "NCI/ADR-RES", "ASSIGNED_CATEGORY": "inactive"}

Request: Please state the recorded outcome for this compound: `O=c1o[nH]/c(=N/c2ccccc2)n1-c1ccccc1`
Response: inactive

Request: Can you check `CN1CC=C(c2c(N)nc(N)[nH]c2=O)CC1` next?
Response: inactive

Request: Also CCC1c2[nH]c3ccccc3c2C[C@H]2C(=O)NC(CCCCNC(=O)OC(C)(C)C)C(=O)N12 (stereo not given in full) , if possible.
Response: inactive
